The reported measurements were obtained from ChEMBL document CHEMBL5370647.

Test: Bioavailability in CD-1 mouse at 10 mg/kg, ip by LC/MS/MS analysis
Format: ADME, organism-based
Settings: in vivo
Experimental Endpoint: bioavailability
Show the value, then the unit it is measured in.

Entry "Cc1cccc(-c2nc(Nc3ccncc3)c3ccn(C)c3n2)n1" , bioavailability reported as 65%

----------
Experiment: Cmax in CD-1 mouse at 10 mg/kg, po by LC/MS/MS analysis
Type: ADME, organism-based
Set-up: dose 10 mg/kg, route po
Settings: in vivo
Experimental Endpoint: Cmax
Show the value, then the unit it is measured in.

                            compound_string   measured
0   Cc1cccc(-c2nc(Nc3ccncc3)c3ccn(C)c3n2)n1  280 ng/mL
1     Cc1cccc(-c2nc(Nc3ccncc3)c3ccccc3n2)n1   60 ng/mL
2  Cc1cccc(-c2nc(Nc3ccc4c(c3)OCO4)c3ccccc3n2)n1   75 ng/mL

Entry "Cc1cccc(-c2nc(Nc3ccc4nn(C)nc4c3)c3ccccc3n2)n1" , Cmax reported as 150 ng/mL

----------
Consider the following compounds and their measured MIC90 readings.
Tested on: Mycobacterium tuberculosis
Experiment: Antitubercular activity against non-replicating Mycobacterium tuberculosis H37Rv expressing luxCDAB assessed as inhibition of bacterial growth incubated for 7 days under hypoxia conditions followed by incubation in normoxia conditions for 5 days by luminescence based analysis
Assay type: functional
Conditions: 288 h, time 12 day

Reference set (10 entries):
                            compound_string  experimental_endpoint  measured
0  COc1ccc(Nc2nc(-c3cccc(C)n3)nc3ccccc23)cc1                  MIC90    1.3 µM
1  Cc1cccc(-c2nc(Nc3ccc4nn(C)nc4c3)c3ccccc3n2)n1                  MIC90    0.3 µM
2  Cc1cccc(-c2nc(Nc3ccc4ncsc4c3)c3ccccc3n2)n1                  MIC90    1.3 µM
3        Cc1cccc(-c2nc(C)cc(Nc3ccncc3)n2)n1                  MIC90   > 10 µM
4  Cc1cccc(-c2nc(Nc3ccc4ncccc4c3)c3ccccc3n2)n1                  MIC90      5 µM
5  COc1ccc2c(Nc3ccncc3)nc(-c3cccc(C)n3)nc2c1                  MIC90    2.5 µM
6     Fc1cccc(-c2nc(Nc3ccncc3)c3ccccc3n2)c1                  MIC90   > 10 µM
7  Cc1cc(Nc2nc(-c3cccc(C)n3)nc3ccccc23)ccn1                  MIC90    1.3 µM
8    Clc1cccc(-c2nc(Nc3ccncc3)c3ccccc3n2)n1                  MIC90    < 1 µM
9     Cc1cccc(-c2nc(Nc3ccncc3)c3ccccc3n2)n1                  MIC90    0.3 µM

Entry "Cc1cccc(-c2nc(Oc3ccc4scnc4c3)c3ccccc3n2)n1" , MIC90 reported as 0.3 µM

Entry "CSc1cccc(Nc2nc(-c3cccc(C)n3)nc3ccccc23)c1" , MIC90 reported as 1.3 µM

Entry "Cc1cccc(-c2nc(Nc3ccc4nc(C)sc4c3)c3ccccc3n2)n1" , MIC90 reported as 0.3 µM

----------
Assay: Half life in CD-1 mouse at 10 mg/kg, po by LC/MS/MS analysis
Assay type: ADME, organism-based
Conditions: in vivo
Experimental Endpoint: t1/2 (h)
Form entry: value (h) — number only.

In [3]: df
Out[3]:
                            compound_string  experimental_endpoint  measured
0  Cc1cccc(-c2nc(Nc3ccc4c(c3)OCO4)c3ccccc3n2)n1                   t1/2       3.4

Entry "Cc1cccc(-c2nc(Nc3ccncc3)c3ccn(C)c3n2)n1" , t1/2 reported as 1.9

Entry "Cc1cccc(-c2nc(Nc3ccncc3)c3ccccc3n2)n1" , t1/2 reported as 1.8

Entry "Cc1cccc(-c2nc(Nc3ccc4nn(C)nc4c3)c3ccccc3n2)n1" , t1/2 reported as 4.6
